# ASSAYED TARGET: T1, human DR5 (recombinant, fusion format not stated for the assay) (human, UniProt O14763 56-207)
# T1 construct: all antigen constructs carry ECD aa 56-207; also called hu DR5; huDR5
# ASSAY SUMMARY: binding to human DR5 after stress test, pH 6.0, 2 weeks 40° C., against non-stressed initial material (defined 100%)
VALUE TYPE: Relative active concentration as compared to the initial state (%)
Answer with a number only, understood to be in %.

Inquiry: Answer with the recorded Relative active concentration as compared to the initial state for the binder listed here: DR5TAA-0074 (antibody, human IgG1, kappa, L234A L235A, V domains shown, humanized variant of DR5TAA-0011; also called VH7/VL10) VH: EVQLVETGGGLIQPGGSLRLSCAASGFTVSRYAMIWVRQAPGKGLEYIGFITSDGSTYYADSAKGRFTISRDNSKNTLYLQMNSLRAEDTAVYYCARYTYSDGTDLWGRGTLVTVSS VL: DIQMTQSPSSLSASVGDRVTITCRASQSISTYLSWYQQKPGQPPKRLIYKASTLASGVPSRFSGSGSGTDFTLTISSLQPEDFATYYCQPNSGIATYGAAFGGGTKVEIKR
Reply text: 103
